# system_tested: Activated CDC42 kinase 1 (Homo sapiens);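 also: values are mean inhibition of TNK2, from the GSK PKIS screening dataset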
# study_conditions: at 0.1 µM
Measured inhibition, listed per entry.
quantity_name: inhibition (%)

INSERT INTO results (structure_as_smiles, system_tested, unit_of_measurement, observed) VALUES
  ('CCOc1ccc2c(-c3ccnc(Nc4cccc(C(F)(F)F)c4)n3)cnn2n1', 'Activated CDC42 kinase 1 (Homo sapiens)', '%', 0.55),
  ('CNC(=O)c1cc(-c2ccc(F)cc2)cc(-c2ccc(S(=O)(=O)N3CCCC3)cc2)c1N', 'Activated CDC42 kinase 1 (Homo sapiens)', '%', 0.47),
  ('CCn1c(-c2nonc2N)nc2cnc(Oc3cccc(NC(=O)c4ccc(N(C)C)cc4)c3)cc21', 'Activated CDC42 kinase 1 (Homo sapiens)', '%', 0.85),
  ('COc1cc(Nc2nccc(Nc3ccc4c(C)n[nH]c4c3)n2)cc(OC)c1OC', 'Activated CDC42 kinase 1 (Homo sapiens)', '%', 10.1),
  ('COc1cccc(-c2c[nH]c3c(N/N=C/c4ccncc4)ncnc23)c1', 'Activated CDC42 kinase 1 (Homo sapiens)', '%', 1.63),
  ('CN1CCC(n2cnc(-c3ccc(F)cc3)c2-c2ccnc(Nc3ccccc3)n2)CC1', 'Activated CDC42 kinase 1 (Homo sapiens)', '%', 0.74),
  ('CCn1cc(-c2ccnc3[nH]ccc23)c(-c2cccc(NC(=O)Nc3ccc(OCc4ccccc4)cc3)c2)n1', 'Activated CDC42 kinase 1 (Homo sapiens)', '%', -0.68),
  ('Cc1ccc2c(-c3ccnc(Nc4ccccc4)n3)c(-c3ccc(F)cc3)nn2n1', 'Activated CDC42 kinase 1 (Homo sapiens)', '%', 1.74),
  ('COC(=O)Nc1nc2ccc(Oc3ccc(NC(=O)Nc4cccc(Cl)c4)cc3)cc2[nH]1', 'Activated CDC42 kinase 1 (Homo sapiens)', '%', 0.12),
  ('O=C(Nc1n[nH]c2cc(-c3ccc(F)cc3)ccc12)C1CC1', 'Activated CDC42 kinase 1 (Homo sapiens)', '%', 0.53),
  ('CN1CCC(n2cnc(-c3ccc(F)cc3)c2-c2ccnc(N)n2)CC1', 'Activated CDC42 kinase 1 (Homo sapiens)', '%', 0.57),
  ('Fc1ccc(-c2cc(-c3c[nH]nc3-c3ccccn3)ccn2)cc1', 'Activated CDC42 kinase 1 (Homo sapiens)', '%', 2.51),
  ('COc1ccc(-c2cc(-c3c[nH]nc3-c3ccccn3)ccn2)cc1', 'Activated CDC42 kinase 1 (Homo sapiens)', '%', 1.58),
  ('CCN(CC)S(=O)(=O)c1ccc(OC)c(Nc2ncc(-c3ccccc3)o2)c1', 'Activated CDC42 kinase 1 (Homo sapiens)', '%', -0.01),
  ('CC(C)(CO)CNC(=O)c1ccc2c(c1)/C(=N/Nc1ccc(S(N)(=O)=O)cc1)C(=O)N2', 'Activated CDC42 kinase 1 (Homo sapiens)', '%', -0.56),
  ('Clc1ccc(-c2nn3ncccc3c2-c2ccnc(Nc3ccccc3)n2)cc1', 'Activated CDC42 kinase 1 (Homo sapiens)', '%', 0.77),
  ('CS(=O)(=O)CCNCc1coc(-c2ccc3ncnc(Nc4ccc(OCc5ccccc5)cc4)c3c2)c1', 'Activated CDC42 kinase 1 (Homo sapiens)', '%', 1.22),
  ('Fc1ccc(-c2nn3ccccc3c2-c2ccncc2)cc1', 'Activated CDC42 kinase 1 (Homo sapiens)', '%', 0.16),
  ('CN(C)CCOc1ccc(-c2nc(-c3ccncc3)c(-c3ccc4c(c3)CC/C4=N\O)[nH]2)cc1', 'Activated CDC42 kinase 1 (Homo sapiens)', '%', 1.21),
  ('CCNC(=O)O[C@H]1CN[C@H](C#Cc2cc3ncnc(Nc4ccc(OCc5cccc(F)c5)c(Cl)c4)c3s2)C1', 'Activated CDC42 kinase 1 (Homo sapiens)', '%', 1.33);
